- target under test: JAK1 (Homo sapiens, UniProt P23458)
- Sequence (P23458 whole entry): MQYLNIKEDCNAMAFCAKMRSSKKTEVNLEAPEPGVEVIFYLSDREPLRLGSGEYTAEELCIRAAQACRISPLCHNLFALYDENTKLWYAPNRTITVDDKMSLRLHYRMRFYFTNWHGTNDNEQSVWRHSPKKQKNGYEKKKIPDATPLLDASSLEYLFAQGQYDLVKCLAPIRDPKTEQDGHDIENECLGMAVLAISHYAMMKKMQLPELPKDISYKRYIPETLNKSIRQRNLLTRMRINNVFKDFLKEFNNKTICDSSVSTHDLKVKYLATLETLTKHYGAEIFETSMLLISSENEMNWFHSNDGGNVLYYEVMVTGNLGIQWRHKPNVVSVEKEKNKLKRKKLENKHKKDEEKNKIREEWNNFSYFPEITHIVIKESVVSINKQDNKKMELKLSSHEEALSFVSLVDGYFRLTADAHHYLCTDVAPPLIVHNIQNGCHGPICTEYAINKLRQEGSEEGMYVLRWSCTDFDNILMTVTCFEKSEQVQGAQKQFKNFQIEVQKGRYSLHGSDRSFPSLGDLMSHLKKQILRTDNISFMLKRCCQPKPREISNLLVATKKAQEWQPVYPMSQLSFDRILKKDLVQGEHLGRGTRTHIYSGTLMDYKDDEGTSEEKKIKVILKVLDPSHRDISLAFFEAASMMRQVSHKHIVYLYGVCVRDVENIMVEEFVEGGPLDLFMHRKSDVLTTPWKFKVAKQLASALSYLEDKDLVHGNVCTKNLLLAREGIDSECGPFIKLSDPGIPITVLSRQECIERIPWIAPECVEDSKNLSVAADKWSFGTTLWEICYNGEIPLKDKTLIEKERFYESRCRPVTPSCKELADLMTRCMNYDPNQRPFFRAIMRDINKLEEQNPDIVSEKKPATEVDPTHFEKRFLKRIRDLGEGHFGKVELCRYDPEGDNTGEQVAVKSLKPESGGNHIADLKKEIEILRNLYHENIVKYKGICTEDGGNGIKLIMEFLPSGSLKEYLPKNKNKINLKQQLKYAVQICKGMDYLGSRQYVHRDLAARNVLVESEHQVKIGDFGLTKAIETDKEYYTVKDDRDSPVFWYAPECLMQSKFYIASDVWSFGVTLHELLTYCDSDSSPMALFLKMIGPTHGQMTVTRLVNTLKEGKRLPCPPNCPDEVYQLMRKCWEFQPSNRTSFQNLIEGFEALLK
- test name: In vitro JAK1 kinase activity assay (HTRF kinEASE TK)
- Assay type: biochemical
- Parameters: purchased Thermo Fisher
- particulars: 1.1 μM ATP, 60 minutes, room temperature; read-out: IC50 JAK1 (enzyme activity assay)
Kindly supply the reported IC50 values for the records listed here.

Some entries whose results are on file:
>>> measured("CCC(C(=O)Nc1nccc2c(-c3nc(Nc4cccc(S(=O)(=O)CC)c4F)ncc3C)c[nH]c12)N1CCN(C)CC1 (stereo not shown)")
"< 5 nM"
>>> measured("CCC(C(=O)Nc1nccc2c(-c3nc(Nc4cn(C)nc4OC)ncc3C)c[nH]c12)N1CC(C)N(C)C(C)C1 (stereo not shown)")
"5 to 50 nM"
>>> measured("CCC(C(=O)Nc1nccc2c(-c3nc(Nc4cccc(NS(C)(=O)=O)c4F)ncc3C)c[nH]c12)N1CCN(C)CC1 (stereo not shown)")
"5 to 50 nM"

The compound listed as COCCNC(=O)Nc1nccc2c(-c3nc(Nc4cccc(S(C)(=O)=O)c4F)ncc3C)c[nH]c12 shows IC50 equal to < 5 nM

Source: patent US12234232B2
